- Test system: skin from a "hairless" mouse or human cadaver
- Assay protocol: transdermal absorption (skin permeation) of nitroglycerin from polymer matrix dosage units, procedure of Keshary and Chien
- Test conditions: 0.8 mg/cm²
Measurement kind: Enhancing Factor

Field: example entries. Status: answers known.
{"Compound": "CCCCCCCCCCCCCC(=O)OCCC [Enhancer C, Propyl myristate]", "Target of assay": "skin from a \"hairless\" mouse or human cadaver", "Measurement kind": "Enhancing Factor", "Readout value": 1.67}
{"Compound": "CCCCCCCC/C=C\\CCCCCCCCO", "Target of assay": "skin from a \"hairless\" mouse or human cadaver", "Measurement kind": "Enhancing Factor", "Readout value": 1.69}
{"Compound": "CCCCCCCC/C=C\\CCCCCCCC(=O)OCCC [Enhancer D, Propyl oleate]", "Target of assay": "skin from a \"hairless\" mouse or human cadaver", "Measurement kind": "Enhancing Factor", "Readout value": 1.22}
{"Compound": "CCCCCCCCCCCCCC(=O)N(C)C [Enhancer H, Myristic acid, N,N-dimethylamide]", "Target of assay": "skin from a \"hairless\" mouse or human cadaver", "Measurement kind": "Enhancing Factor", "Readout value": 1.3}

P: CCCCCCCCCC(=O)O
Q: CCCCCCCCCC[S+](C)[O-] (stereo not drawn) [Enhancer G, Decylmethyl sulfoxide]
INPUT: // max by Enhancing Factor over [ P , Q ] // caller expects the label of the chosen entry
OUTPUT: P

====

- Test system: skin from a "hairless" mouse or human cadaver
- Assay protocol: transdermal absorption (skin permeation) of nitroglycerin from polymer matrix dosage units, procedure of Keshary and Chien
Measurement kind: Skin Permeation Rate Without (mcg/cm²/hr)

{"Compound": "CCCCCCCCCCCCCC(=O)OCC(O)CO (racemic) [1-Monomyristoly-RAC-Glycerol]", "Skin Permeation Rate Without (mcg/cm²/hr)": 34.1}
{"Compound": "CCCCCCCCCCCCCC(=O)OCC(O)COC(=O)CCCCCCCCCCCCC (racemic) [1,3-Dimyristoyl-RAC-Glycerol]", "Skin Permeation Rate Without (mcg/cm²/hr)": 34.1}
{"Compound": "CCCCCCCCCCCCCCCC(=O)OCC(O)CO (racemic) [1-Monopalmitoyl-RAC-Glycerol]", "Skin Permeation Rate Without (mcg/cm²/hr)": 34.1}
{"Compound": "CCCCCCCCCCCCCC(=O)OCC(CO)OC(=O)CCCCCCCCCCCCC (racemic) [1,2-Dimyristoyl-RAC-Glycerol]", "Skin Permeation Rate Without (mcg/cm²/hr)": 39.4}

====

- System: skin from a "hairless" mouse or human cadaver
- Assay protocol: transdermal absorption (skin permeation) of nitroglycerin from polymer matrix dosage units, procedure of Keshary and Chien
- Test conditions: 3.18 mg/cm²
Measurement kind: Enhancing Factor

Field: example entries. Status: answers known.
{"Compound": "CCCCCCCC/C=C\\CCCCCCCC(=O)OCCC [Enhancer D, Propyl oleate]", "Target of assay": "skin from a \"hairless\" mouse or human cadaver", "Readout value": 3.08}
{"Compound": "CCCCCCCC/C=C\\CCCCCCCCO [Enhancer E, Oleyl alcohol]", "Target of assay": "skin from a \"hairless\" mouse or human cadaver", "Readout value": 2.65}

1: CCCCCCCCCC(=O)O [Enhancer B, Decanoic acid]
2: CCCCCCCCCCCCCC(=O)N(C)C [Enhancer H, Myristic acid, N,N-dimethylamide]
3: CCCCCCCCCCCCCC(=O)OCCC [Enhancer C, Propyl myristate]
INPUT: // ranking: key=Enhancing Factor, reverse=True Answer with the labels in sequence, matching the requested order.
OUTPUT: 1, 3, 2
